# TEST_SUMMARY: supercomplex reporter luminescence per Hoechst cell count – Hoechst nuclei count (AID 1645838);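 also: control cybrid cells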;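 as to z-score: higher means more mitochondrial supercomplex formation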
# DETAILS: Cells, luminescence/Hoechst cell count ratio, library stock concentration (final well concentration not given) 278 uM
The whole screen tested about 2,000 compounds, of which about 100 (5%) were called active. Rule as the data show it: active = z-score above about 2; inactive = the rest. This excerpt belongs to a sample that is enriched for actives. Residues, ends and D or L forms follow the SMILES beside them. *: point of attachment. Cbz = O=C(OCc1ccccc1)*
Entry note: the call must match one of true (1) = active, false (0) = inactive

Answered cases to consult:
O=c1cc(-c2cccc3c2Sc2ccccc2S3)oc(N2CCOCC2)c1	false (0)
O=c1[nH]oc2cc(Cl)ccc12	false (0)
Nc1ccccc1NC(=O)c1ccc(CNC(=O)OCc2cccnc2)cc1	false (0)

Q. // return assay outcome for CCOC(=O)C(N)Cc1ccc(-c2cc(OC(c3ccc(Cl)cc3-n3ccc(C)n3)C(F)(F)F)nc(N)n2)cc1 (stereo unspecified)
A. false (0)

Q. Identify the outcome logged in this assay for the compound shown: CC(C)CC(C=O)NC(=O)C(CC(C)C)NC(=O)C(CC(C)C)NC(=O)OCc1ccccc1 (stereo not drawn) (Cbz-Leu-Leu-Leu-aldehyde; configuration not given here)
A. false (0)

====

# TEST_SUMMARY: supercomplex reporter luminescence per Hoechst cell count – Hoechst nuclei count (AID 1645838);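 also: control cybrid cells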
# DETAILS: Cells, luminescence/Hoechst cell count ratio, measured here: cell number, Hoechst nuclei count, library stock concentration (final well concentration not given) 80 uM
Screen size: about 2,000 compounds; about 100 (5%) were called active. For the sample, actives were picked, then their nearest neighbours and some compounds at random.
MEASURE: cell count
Respond numerically, and do not add a unit to the figure.

These recorded examples may help you get a feel for the data.
CCCCCCNC(=O)Nc1ccc(S(=O)(=O)Nc2ccc(CCNCC(O)COc3ccc(O)cc3)cc2)cc1 (stereo not given)	5240
NC(=O)c1cnc(NC2CCCCC2N)nc1Nc1cccc(-n2nccn2)c1 (stereo not given)	5260
O=C1C(=Cc2cn(-c3ccccc3)nc2-c2ccc(OCc3ccc(Cl)cc3)cc2)SC(=S)N1CCS(=O)(=O)O	5380
O=C(Nc1ccc(S(=O)(=O)Nc2ccccc2Cl)c(Cl)c1)c1ccccn1	5940
Cn1cc(C=C2C(=O)Nc3cccnc32)c2ccccc21	5300

Q. Please give measured cell count of the following entry: CC(C)OC(=O)CCCC=CCC1C(O)CC(O)C1C=CC(F)(F)COc1ccccc1 (stereo not given)
A. 6260

Q. # return recorded cell count for entry Nc1nc(OC(c2ccc(-c3cccc(F)c3)cc2)C(F)(F)F)cc(-c2ccc(CC(N)C(=O)O)cc2)n1 (stereo not given)
A. 4780

Q. Fill in cell count for record CCN(CC)Cc1ccc(C(=O)N(CCc2ccccc2OC)C2CCNC2)cc1 (stereo not given)
A. 5850

Q. Answer with reported cell count of Cn1c(SCC(=O)N2CCCC2C(=O)Nc2ccccc2-c2ccccc2)nc2ccccc21 (stereo not given)
A. 5510

Q. Retrieve cell count measured for `Cc1cc(Nc2ccc(NC(=O)c3ccc(Nc4ccnc5ccccc45)cc3)cc2)nc(N)n1` and print it.
A. 6440

====

# TEST_SUMMARY: supercomplex reporter luminescence per Hoechst cell count – Hoechst nuclei count (AID 1645838);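 also: control cybrid cells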;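 as to z-score: higher means more mitochondrial supercomplex formation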
# DETAILS: Cells, luminescence/Hoechst cell count ratio, library stock concentration (final well concentration not given) 2 mM, stronger effect = higher value
Among all 2,000 compounds or so, about 100 (5%) were called active. The sample holds actives, similar compounds and a random draw of the others, so the mix is not that of the screen.
Respond with yes for z-score values of 0.9 and above, no for values below.

Solved cases below.
COc1cc(Cc2cnc(N)nc2N)c2c(c1OC)OC(C1CC1)C=C2 (configuration not stated)	no
CC(=O)c1cccc(NC(=O)CN2CCc3cc4c(cc3C2)OCCCO4)c1	no
CS(=O)(=O)N1CCc2c(-c3cnc(N)nc3)nc(N3CCOCC3)nc21	yes
Cc1nc(Nc2ncc(C(=O)Nc3c(C)cccc3Cl)s2)cc(N2CCN(CCO)CC2)n1	yes
Cc1cn(-c2cc(NC(=O)c3ccc(C)c(Nc4nccc(-c5cccnc5)n4)c3)cc(C(F)(F)F)c2)cn1	no

Q. Assess whether reported z-score for `COc1ccc(Br)c(-c2nc3ccccc3c(=O)o2)c1` sits at 0.9 or higher.
A. no

Q. Is z-score for Cc1ccc(NC(=O)c2ccc(CN3CCC(N(C)C)C3)c(C(F)(F)F)c2)cc1Nc1nccc(-c2cncnc2)n1 (configuration not stated) at or above 0.9?
A. yes

Q. In plain terms: is recorded z-score at least 0.9 for CC(CSC(=O)c1ccccc1)C(=O)N1CC(Sc2ccccc2)CC1C(=O)O (configuration not stated) ?
A. no

Q. Does z-score meet or surpass 0.9 for `CCC(=C(CC)c1ccc(O)cc1)c1ccc(O)cc1` ?
A. no

Q. I'd appreciate it if you could say whether `CN(C)CCOc1ccc(-c2nc(-c3ccc4c(c3)CCC4=NO)c(-c3ccncc3)[nH]2)cc1` has z-score at least equal to 0.9.
A. yes

Q. Hello, I need to know if Cc1cc(N2CCOCC2)cc2[nH]c(-c3c(NCC(O)c4cccc(Cl)c4)cc[nH]c3=O)nc12 (configuration not stated) has measured z-score not below 0.9. Thanks!
A. yes

====

# TEST_SUMMARY: supercomplex reporter luminescence per Hoechst cell count – Hoechst nuclei count (AID 1645838);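 also: control cybrid cells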;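 as to z-score: higher means more mitochondrial supercomplex formation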
# DETAILS: Cells, luminescence/Hoechst cell count ratio, library stock concentration (final well concentration not given) 400 uM
The whole screen tested about 2,000 compounds, of which about 100 (5%) were called active. No stated cut-off is given here; in the data, active means z-score above about 2; inactive means the rest. The full list was thinned out, with actives kept by preference.
Bench note: report the call from Y = active, N = inactive

As a guide, the following entries are already answered.
Cc1c(Cc2ccc3ccccc3n2)c2cc(F)ccc2n1CC(=O)O	N
CCC(NC(=O)c1c(C)c(-c2ccccc2)nc2ccccc12)c1ccccc1 (stereo not given)	N
Cc1c(-c2ccc(-c3ccccc3F)cc2)nc2ccc(F)cc2c1C(=O)O	Y
COC(=O)C(CCSC)NC(=O)c1ccc(NCC(N)CS)cc1-c1ccccc1 (stereo not given)	N
CC(=O)c1ccc2c(c1)c1cc(C(C)=O)ccc1n2CCNC(C)C	Y

Q. For `COc1cc(N2CCOCC2)ccc1Nc1ncc(F)c(Nc2ccccc2NS(C)(=O)=O)n1` , what call appears in the results of this test?
A. N

Q. Record request — test call for CCCC(NC(C)C(=O)N1C(C(=O)O)C[C@H]2CCCC[C@@H]21)C(=O)OCC (stereo not given in full)
A. N

====

# TEST_SUMMARY: supercomplex reporter luminescence per Hoechst cell count – Hoechst nuclei count (AID 1645838);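 also: control cybrid cells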;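 as to z-score: higher means more mitochondrial supercomplex formation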
# DETAILS: Cells, luminescence/Hoechst cell count ratio, library stock concentration (final well concentration not given) 46 uM, stronger effect = higher value
About 100 (5%) of roughly 2,000 compounds were called active. What follows is part of a selection rich in actives, with near analogues and random picks from the rest.
Values of z-score greater than or equal to -0.2 map to class 1; values below map to class 0.

Cc1cc(N2CCOCC2)ccc1Nc1nc(NC2CCCCC2)c2[nH]cnc2n1	class 0

Q. Please check the record `NC(=O)c1cnc(NCCc2ccc(O)c(Cl)c2)nc1NCc1ccccc1` and state if its z-score is at or above -0.2.
A. class 0

Q. # bool: z-score of `N=C(N)c1ccc2cc(OC(=O)c3ccc(N=C(N)N)cc3)ccc2c1` >= -0.2
A. class 1

Q. Exam item: decide whether the reported z-score for `CC(=NNC(=O)c1cccc(S(=O)(=O)N2CCOCC2)c1)c1cc(Cl)ccc1O` is at least -0.2.
A. class 0

Q. Identify whether the reported z-score of the following compound is -0.2 or greater: `O=C(NNS(=O)(=O)c1ccccc1C(F)(F)F)c1cc2cc(Cl)ccc2o1`
A. class 1

Q. Test whether the compound NC(CSCCB(O)O)C(=O)O (stereo unspecified) records z-score of -0.2 or higher.
A. class 0

====

# TEST_SUMMARY: supercomplex reporter luminescence per Hoechst cell count – Hoechst nuclei count (AID 1645838);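 also: control cybrid cells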;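 as to z-score: higher means more mitochondrial supercomplex formation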
# DETAILS: Cells, luminescence/Hoechst cell count ratio, library stock concentration (final well concentration not given) 10 mM, stronger effect = higher value
In all, about 2,000 compounds went through this assay and about 100 (5%) were called active. The full list was thinned out, with actives kept by preference.
Label scheme for z-score: lower than -0.2 is Condition not met, -0.2 and above is Condition met.

Recorded results for 4 compounds are shown here.
O=C(Nc1ccccc1)Nc1ccc(-c2ccc(C(=O)C3CCCC3C(=O)O)cc2)cc1 (stereo not given)	Condition not met
O=C(NC1CCN(CC(F)(F)F)CC1)c1ccc(-c2cccc(F)c2)nc1	Condition not met
O=C(O)c1ccc2nc(-c3cc(Cl)cc(Cl)c3)oc2c1	Condition met
O=C1C(=Cc2cn(-c3ccccc3)nc2-c2ccc(OCc3ccc(Cl)cc3)cc2)SC(=S)N1CCS(=O)(=O)O	Condition not met

Moving on to another compound below.
Q. Please check the record `Cc1cc(C)cc(NC(=O)Nc2ccc(S(N)(=O)=O)cc2)c1` and state if its z-score is at or above -0.2.
A. Condition not met
